- Test system: MS2 coat protein
- Procedure Summary: apparent KD of MS2 coat protein; higher = weaker reporter binding
- Assay Context: Eterna round: R107; input ligand: theophylline 20 uM
Measurement Kind: apparent KD of MS2 coat protein (nM)
I only need the number, in nM, no unit after it.

Below are worked cases with known answers.
Query string: GET /values?readout=apparent KD of MS2 coat protein&item= AGGAAAACAUGAGCAAAGCUCAUGUGCGAAGGAGCGGCGGAAACGCCAGGUAGGUCGCGCACAUGAGCAUCAGCCAUGUGUAUCA [Omei Arginine B SS A v4]
Result string: 78.8

Query string: GET /values?readout=apparent KD of MS2 coat protein&item= UGAUCCUACAGAGAUACCAGUGCCACUGAGUGACCAGACACAUGAGGAUCACCCAUGUAACACCCUUGGCAGCUCAACUAGAGGG [Same State Theophylline B GF18]
Result string: 22.3

Query string: GET /values?readout=apparent KD of MS2 coat protein&item= CCUAUGCAGUCGGCCGCCACUGAACAUGAGGAUCACCCAUGUUUUUAUAAAUAUGGUCCUAUAAUCAGGACCGGGACUGUAUAGG [Ex Tryptophan B 9]
Result string: 59.7

Others:
Query string: GET /values?readout=apparent KD of MS2 coat protein&item= GGGCGCUAUCCCGCGAGGGAUAGCGUUCGACGAGGACCGGUACGGCCGCCACUCGAACGAGUGGUGACAUGAGGAUCACCCAUGU [Naa]
Result string: 56.7

Query string: GET /values?readout=apparent KD of MS2 coat protein&item= UGUAUGUGAUCUGAUACCAGAGUGAAUAAACGCGAAAGCGCCUGAGGAUCACCCUGGUAACUCCCUUGGCAGCAGAUCGCAUACU
Result string: 789

Query string: GET /values?readout=apparent KD of MS2 coat protein&item= ACAUGAGGAUGGGAUACCAGAUACAUGAGGAUCACCCAUACAUGAGGAUCACCCAUGUCCGUCCCUUGGCAGCCCAACAUGAGGA [Exclusion Theophylline B]
Result string: 153

Query string: GET /values?readout=apparent KD of MS2 coat protein&item= AAUAUAUAUCACGAACUGUGGUGUAUGUUGCGAGGACCGGUACGGCCGCCACUCGGCCGGUGGUACAUGAGGAUCACCCAUGUUG [XTryp A #9]
Result string: 48.7

Query string: GET /values?readout=apparent KD of MS2 coat protein&item= AUGCAUAGCCGAAGGAGCGCAAUAGAAUGACAUGAGGAUCACCCAUGUGUGUGAUGUGGAUUGCAGGUAGGUCGCGGAGUGGUAU [Exclusion - Arginine B (Freestyle 4)]
Result string: 52.6

Query string: GET /values?readout=apparent KD of MS2 coat protein&item= CGCCACAUGAGGAUCACCCAUGUCUUGGCGCGAGGACCGGUACGGCCGCCACUCGCGUUUCAGUGAGCGCAUGCGUCCUUGGUAU [Exclusion Tryp A GF10]
Result string: 27

Query string: GET /values?readout=apparent KD of MS2 coat protein&item= CACGAAAGAUCGGCCGCCACUAACCUGUGUGUACUAGCACAUGAGGAUCACCCAUGUUCUUGCGUUAGGACCGGGAUUGAGCGUG [#04 Exclusion Tryptophan B]
Result string: 30.7

Query string: GET /values?readout=apparent KD of MS2 coat protein&item= CGGUUUGUGAUGGAUACCAGCAGAGUGAAUGUUUAUCCUGACAUGAGGAUCACCCAUGUGUGCCCUUGGCAGCUGUUGUGGGCUG [8.Z]
Result string: 100

Query string: GET /values?readout=apparent KD of MS2 coat protein&item= UAAACAUGAGGAUCACCCAUGUUGGAUGAAGGAGCGACCAGAGGGUCAGGUAGGUCGCAUCACAUGAGGAUCACCCAUGUCAUUU [DOUBLE!!! :-D #12]
Result string: 114

---

- Test system: K4 kissing-loop RNA reporter;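 also: bound reporter read as fluorescence of individual clusters on recovered sequencing chips by microscopy, with normalized cluster intensities fitted with a binding model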
- Procedure Summary: apparent KD of K4 kissing-loop reporter; higher = weaker reporter binding
- Assay Context: Eterna round: R107; input ligand: tryptophan 2.4 mM
# if value of apparent KD of K4 kissing-loop reporter reaches 100 nM, tag Condition met; if it stays below, tag Condition not met

Query string: In plain terms: is recorded apparent KD of K4 kissing-loop reporter at least 100 nM for UGUAAGCGCGUAGAUACCAGCAGACGAGUGAUGUUCAAGAGAUUAAGGAAAAGAAAGUAAUGCCCUUGGCAGCUAAUCAUAAGCG [whbob_Ex_Theo_B_sa93] ?
Result string: Condition met

Query string: In plain terms: is recorded apparent KD of K4 kissing-loop reporter at least 100 nM for UUUGUAUAGGGAAGGAGCGUGAAUGAGAAAGAAUAUAGUGAUGUUAUAUAGAAGAAAGAAUCACAGGUAGGUCGCCCGGAGGAGG [SSArgB.G] ?
Result string: Condition met

Query string: In plain terms: is recorded apparent KD of K4 kissing-loop reporter at least 100 nM for UACAUUGCAGUCUUCUUCGUCCUAGAUGACUAGGAUAUCAGGAAACUGAGAAGGAGUCACUGCAGUGAUGUUGCAGCUAGGACGA [KL-SSFMN-A9] ?
Result string: Condition met

Query string: In plain terms: is recorded apparent KD of K4 kissing-loop reporter at least 100 nM for GGAUUGCCAGUGAUGUUGGCAUAAACUGAAGGAGCGCGUGAAAACGCAGGUAGGUCGCAGAACCUUGCCAACUAUUUUAUUUACC [Ex Arginine A K4 23] ?
Result string: Condition not met

Query string: In plain terms: is recorded apparent KD of K4 kissing-loop reporter at least 100 nM for GCCGUACGCAUGGAUACCAGUCUAAGAGUGAUGUUCUUACCGAUUGCGCCUGGAUCAUUAGACCCUUGGCAGCCAUGCGUACGGC ?
Result string: Condition met

Query string: In plain terms: is recorded apparent KD of K4 kissing-loop reporter at least 100 nM for AAACCAAUCAGAGGAUAUUCUUUAUUCGACAUAACCUUCUAUAAGGUGCAGUGAUGUUGCAAUAUAGGAGAAGGCUGAUUGACAA [Exclusion FMN B Gf 13] ?
Result string: Condition met

Query string: In plain terms: is recorded apparent KD of K4 kissing-loop reporter at least 100 nM for UUAGUUGAAAGUGAUACCAGACGAGUGAAGGGAAGAAAUUAAGUUGGAGUGAUGUUCCGCGUCCCUUGGCAGCACUUUGUAAUUU [Exclusion Theophylline B GF 22] ?
Result string: Condition met

Query string: In plain terms: is recorded apparent KD of K4 kissing-loop reporter at least 100 nM for AGUAGUUGGACGGCCGCCACUAGAACGGCUUUGCCAAAGGCAGAGCACUAGAGUGAUGUUCUAGCUAGGACCGGGUCCAACUACA [Omei KL Tryp B SS A v3] ?
Result string: Condition met

Others:
Query string: In plain terms: is recorded apparent KD of K4 kissing-loop reporter at least 100 nM for UAGGAGUGAUGUUCCUAUAGCAGGUAGGAAGGAGCGCCCAUUUGGGCAGGUAGGUCGCCUACCGGCCCUAAGUUAAACCUUAGGC [Rariar] ?
Result string: Condition not met

Query string: In plain terms: is recorded apparent KD of K4 kissing-loop reporter at least 100 nM for UAUAUACAUUUAUUAAUUAAAGGUUCAGAAGGAGCGUGAAUUAACACAGGUAGGUCGCUGAGCGAGUGAUGUUCGCUAUAUGGAA [JR_ExcArginiA_Sub006] ?
Result string: Condition not met

Query string: In plain terms: is recorded apparent KD of K4 kissing-loop reporter at least 100 nM for UAGCGUAUCAGAGGAUAUGAUAUGUUAUGCAGUGAUGUUGCAUGAUGUAGCAGAAUUCUGAGUGUAUCAGAAGGCUGAUAUGCUA [FMN B Ex t3] ?
Result string: Condition not met

Query string: In plain terms: is recorded apparent KD of K4 kissing-loop reporter at least 100 nM for UGGGAUGUUAAAGGAUAUAGCAAGUGAUAUAAGAAAGUGAGUGAUGUUUAUGUAGGUGAUGAUAUGUUAGAAGGUUAACAAAACG [abcdefgh] ?
Result string: Condition met

---

- Tested on: MS2 coat protein
- Procedure Summary: apparent KD of MS2 coat protein; designed switch direction (-1 OFF switch, 1 ON switch): 1; higher = weaker reporter binding
- Assay Context: input ligand: none
# if value of apparent KD of MS2 coat protein reaches 0.1 µM, tag YES; if it stays below, tag NO

Sample answers from the record:
Query string: In plain terms: is recorded apparent KD of MS2 coat protein at least 0.1 µM for UGAACCUUCACAGGAUAUCAUGCGAAAAUUGCGUGAGAAGGGUGGAUGUGGCGUUCAUAGUUGCACAUGAGGAUCACCCAUGUA [SameState NG1 #50] (Eterna round: R96, puzzle: Same State NG 1) ?
Result string: YES

Query string: In plain terms: is recorded apparent KD of MS2 coat protein at least 0.1 µM for CAUCUAUACUUAGGAUAUGUAGGAUAUGCCUACAUGAGGAUCACCCAUGUUCGCAUGGCAGAAGGACAGAAGGAAGAACUACUU [pwkr ssNG2 2FMN + 1F5.5] (Eterna round: R96, puzzle: Same State NG 2) ?
Result string: YES

Query string: In plain terms: is recorded apparent KD of MS2 coat protein at least 0.1 µM for AAGAUGCUCGUAGGAUAUUGGAAAGGAAGUGUACAAGAAGGACGGUGUCACAUGAGGAUCACCCAUGUUACAGUCUAAUGACUG [PowerStrip SSNG 1.1] (Eterna round: R96, puzzle: Same State NG 1) ?
Result string: NO

Query string: In plain terms: is recorded apparent KD of MS2 coat protein at least 0.1 µM for GGCGAACAGGCUAACAUGAGGAUCACCCAUGUGGACUCAUGGUAGGAUAUCGGGAAGGAGGAAACCGAGAAGGGCCGGUGAGCC [AK SSNG3-V2-48] (Eterna round: R96, puzzle: Same State NG 3) ?
Result string: YES

Query string: In plain terms: is recorded apparent KD of MS2 coat protein at least 0.1 µM for ACAUGAGGAUCACCCAUGUAUAGAAUUGAAUGUUAAGAUACGUAGGAUAUCGAGAUUAGUAUGAUCGAGAAGGACGAUUAGAUA [JR_SSNG3_Sub064] (Eterna round: R96, puzzle: Same State NG 3) ?
Result string: NO

Others:
Query string: In plain terms: is recorded apparent KD of MS2 coat protein at least 0.1 µM for GCUGCAAAGGCAGGAUAUGGGUCCAGAGCGCAAAUGCGCUCUGGUACAUGAGGAUCACCCAUGUCCCAGAAGGGCCCAAGCAGC [Inleedbi] (Eterna round: R96, puzzle: Same State NG 2) ?
Result string: YES

Query string: In plain terms: is recorded apparent KD of MS2 coat protein at least 0.1 µM for GGACGUCGAUUUCCUACUUAAACAUGAGGAUCACCCAUGUCACAGGAUAUGAGUCCGAUUAGGACUCAGAAGGGUGCGACGUCC [Fiskers NG3ss - 52] (Eterna round: R96, puzzle: Same State NG 3) ?
Result string: NO

Query string: In plain terms: is recorded apparent KD of MS2 coat protein at least 0.1 µM for UUGUUUCGUCAUUAACAUGAGGAUCACCCAUGUAUUGACCCAAAGGAUAUAUAUGUUUGUUUGUAAUAGAAGGUUGAUUGUUGU [JR_SSNG3_Sub091] (Eterna round: R96, puzzle: Same State NG 3) ?
Result string: NO

Query string: In plain terms: is recorded apparent KD of MS2 coat protein at least 0.1 µM for AUUGCUUACGCAGGAUAUGAUGCGAAAAUUGCGUCAGAAGGGUGAAGUGACUCGUUGCAACAAGACAUGAGGAUCACCCAUGUC [SameState NG1 #92] (Eterna round: R96, puzzle: Same State NG 1) ?
Result string: YES
